assayed target: D(2) dopamine receptor (Homo sapiens)
method summary: HTS Assay for Allosteric Antagonists of the Human D2 Dopamine Receptor: Primary Screen for Antagonists; note: 0% is about no effect
condition parameters: HEK293 TREx D2 cells, calcium flux, dopamine EC80; at 10 µM; active compounds read high
Hit rate of the full screen: of about 340,000 compounds, about 6,900 (2%) were called active. Only a selection was taken, and actives are over-represented in it overall.
measured attribute: inhibition (%)
API: value field is a number in %; no unit string.

**Q:** Quick one: inhibition for CCc1nnc(NC(=O)c2ccc(S(=O)(=O)NC3CCCCC3)cc2)s1 ?
**A:** -18.8

**Q:** Quick one: inhibition for CCCn1nc(C(=O)OCc2nc(N)nc(Nc3ccccc3C)n2)c2ccccc2c1=O ?
**A:** 6.08

**Q:** Quick one: inhibition for Cc1ccc(Nc2nnc(SC(C)C(=O)NC3CC3)s2)cc1 (stereo unspecified) ?
**A:** -31.5

**Q:** Quick one: inhibition for CN(C)CCNC(=O)Cc1ccc([N+](=O)[O-])cc1 ?
**A:** -7.39

**Q:** Quick one: inhibition for Cc1ccc(S(=O)(=O)Nc2nc(CN3CCOCC3)nc3sc(C)c(C)c23)cc1 ?
**A:** -2.97

**Q:** Quick one: inhibition for O=C(Nc1ccccc1)Nc1nc2ccccc2s1 ?
**A:** 38.1

**Q:** Quick one: inhibition for NC(=O)c1nsc(C(=O)N(CCCN2CCOCC2)C(C(=O)NC2CCCCC2)c2ccc(Cl)cc2)c1N (stereo unspecified) ?
**A:** 30.5

**Q:** Quick one: inhibition for CC(C)(C)OC(=O)Nc1ccc([C@@H](NC(=O)OC(C)(C)C)C(=O)OC(C)(C)C)cc1 ?
**A:** 5.44

**Q:** Quick one: inhibition for O=C(CCNC(=O)c1ccccc1)Nc1nc2ccccc2s1 ?
**A:** 9.78

**Q:** Quick one: inhibition for Cc1nnc(SC(C)C(=O)Nc2ccc(S(=O)(=O)NC3CCCCC3)cc2)s1 (stereo unspecified) ?
**A:** 61.3

**Q:** Quick one: inhibition for Cc1cc(C)c(S(=O)(=O)N2CCC(C(=O)OCc3c(C)noc3C)CC2)c(C)c1 ?
**A:** 7.04

**Q:** Quick one: inhibition for CCOc1ncccc1C(=O)OCC(=O)c1c[nH]c2ccccc12 ?
**A:** 12.3

**Q:** Quick one: inhibition for NC(=O)NC(CC(=O)NNC(=O)c1ccccn1)c1ccc(Cl)cc1 (stereo unspecified) ?
**A:** 35.3

**Q:** Quick one: inhibition for Cc1nn(Cc2ccccc2)c(C)c1C(=O)N1CCN(CC(=O)Nc2ccccc2Cl)CC1 ?
**A:** 0.422

**Q:** Quick one: inhibition for Cc1ccc(-c2csc(NC(=O)C3=COCCO3)n2)cc1C ?
**A:** 1.39

**Q:** Quick one: inhibition for COc1ccc(Cc2nnc(NC(=O)c3ccc(OC)cc3OC)s2)cc1 ?
**A:** 2.14

**Q:** Quick one: inhibition for O=C(CNS(=O)(=O)c1ccc2c(c1)OCCCO2)N1CCN(c2ccc(F)cc2)CC1 ?
**A:** -12.5

**Q:** Quick one: inhibition for CC(C)(C)NC(=O)C(c1ccc(Cl)cc1)N(CCO)C(=O)c1snc(C(N)=O)c1N (stereo unspecified) ?
**A:** -7.69

**Q:** Quick one: inhibition for CCOc1ccc(C(C(=O)NC2CCCC2)N(C(=O)c2snc(C(N)=O)c2N)C2CCCC2)cc1 (stereo unspecified) ?
**A:** -2.16

**Q:** Quick one: inhibition for NC(=O)NC(=O)C(OC(=O)CCNS(=O)(=O)c1ccccc1)c1ccccc1 (stereo unspecified) ?
**A:** 12.6

**Q:** Quick one: inhibition for CC(=O)NC12CC3CC(C1)CC(C(=O)N1CCN(S(=O)(=O)c4cccs4)CC1)(C3)C2 ?
**A:** -3.14
